Target: RORgT (Homo sapiens)
Construct: Gal4 (fusion partner); expressed in transfected cells; host or cells: engineered Jurkat cells (Jurkat pEx/Gal/hRORγ CLBD/HYG pG5luc/blast)
Assay: RORgT Gal4 Luciferase Reporter Gene Assay
Assay type: cell-based
Settings: engineered Jurkat cells overexpressing RORgT (LBD or full length) with Gal4 Luc reporter; 18 hours at 37° C.; 40 μM to 0.67 nM; read-out: RORg_GAL4 EC50
pEC50: −log10 of the molar value.
measurement-type: pEC50

The cases that follow already have their pEC50 on record.
{"smiles-repr": "CCS(=O)(=O)N1CCC(CC(=O)NCc2ccc(Cl)c(Oc3ccc(OC)c(C(C)C)c3)c2Cl)CC1", "measurement-type": "pEC50", "readout-value": 6.28}
{"smiles-repr": "CC(C)c1cc(F)cc(Oc2c(Cl)cc(NC(=O)CN3CCN(S(C)(=O)=O)CC3)cc2Cl)c1", "measurement-type": "pEC50", "readout-value": 8.12}
{"smiles-repr": "COc1ccc(Oc2c(Cl)cc(NC(=O)Cc3cncc(C(N)=O)c3)cc2Cl)cc1C(C)C", "measurement-type": "pEC50", "readout-value": 6.27}
{"smiles-repr": "COc1ncc(Oc2c(Cl)cc(NC(=O)CN3CCN(S(C)(=O)=O)CC3)cc2Cl)cc1C(C)C", "measurement-type": "pEC50", "readout-value": 8.28}

A. COc1ccc(Oc2c(Cl)cc(NC(=O)Cc3ccc(Cl)nc3)cc2Cl)cc1C(C)C
B. COc1ccc(Oc2c(Cl)ccc(CNC(=O)Cc3cccc(S(C)(=O)=O)c3)c2Cl)cc1C(C)C
C. COc1ccc(Oc2c(Cl)ccc(C#N)c2Cl)cc1C(C)C
D. COc1ccc(Oc2c(Cl)cc(NC(=O)Nc3cccnc3)cc2Cl)cc1C(C)C
Prompt line: Thanks in advance: please rank these 4 entries by pEC50, highest to lowest. Put the labels in the requested order and list them out.
Response line: A, D, B, C
(A: 7.17, D: 6.55, B: 6.27, C: 5.73)

---

Molecular target: RORgT (Homo sapiens)
Construct: Gal4 (fusion partner); expressed in transfected cells; host or cells: engineered Jurkat cells (Jurkat pEx/Gal/hRORγ CLBD/HYG pG5luc/blast)
Sequence (P51449 267-516): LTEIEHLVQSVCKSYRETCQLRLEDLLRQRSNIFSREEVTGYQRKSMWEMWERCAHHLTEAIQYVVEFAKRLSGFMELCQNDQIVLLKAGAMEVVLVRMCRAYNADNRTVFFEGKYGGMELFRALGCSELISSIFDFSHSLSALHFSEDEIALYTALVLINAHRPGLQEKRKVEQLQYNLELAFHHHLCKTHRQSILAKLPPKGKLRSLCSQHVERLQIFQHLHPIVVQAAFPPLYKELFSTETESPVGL
Test: RORgT Gal4 Luciferase Reporter Gene Assay
Format: cell-based
Details: engineered Jurkat cells overexpressing RORgT (LBD or full length) with Gal4 Luc reporter; 18 hours at 37° C.; 40 μM to 0.67 nM; read-out: RORg_GAL4 EC50
measurement-type: EC50 (µM)

The cases that follow already have their EC50 on record.
{"compound": "COc1ccc(Oc2c(Cl)cc(NS(=O)(=O)C(C)C)cc2Cl)cc1C(C)C [Example 305]", "study-system": "RORgT (Homo sapiens)", "EC50 [µM]": 0.421}
{"compound": "COc1ccc(Oc2c(Cl)cc(NC(=O)Cc3cccnc3Cl)cc2Cl)cc1C(C)C [Example 345]", "study-system": "RORgT (Homo sapiens)", "EC50 [µM]": 0.124}
{"compound": "COc1ccc(Oc2c(Cl)cc(NC(=O)Cc3cnn(S(C)(=O)=O)c3)cc2Cl)cc1C(C)(C)C [Example 256]", "study-system": "RORgT (Homo sapiens)", "EC50 [µM]": 0.153}

a. COc1ccc(Oc2c(Cl)cc(C(=O)NCc3ccc(S(N)(=O)=O)cc3)cc2Cl)cc1C(C)C [Example 156]
b. COc1ccc(Oc2c(Cl)cc(NC(=O)CCN3CCCC3=O)cc2Cl)cc1C(C)C [Example 291]
Prompt line: Between a and b , which one shows the larger EC50 value? Your answer should be the label attached to the chosen record.
Response line: a

A. COc1ccc(Oc2c(Cl)ccc(C(=O)NC(C)c3cn(C)nc3C)c2Cl)cc1C(C)C (stereo not shown) [Example 204]
B. COc1ncc(Oc2c(Cl)ccc(CNC(=O)C3CCN(S(N)(=O)=O)CC3)c2Cl)cc1C(C)C [Example 147]
C. CCS(=O)(=O)NC1CCN(CC(=O)Nc2cc(Cl)c(Oc3ccc(OC)c(C(C)C)c3)c(Cl)c2)CC1 [Example 173]
D. COc1ccc(Oc2c(Cl)cc(NC(=O)Cc3cnc(S(C)(=O)=O)cn3)cc2Cl)cc1C(C)C [Example 243]
Prompt line: Give the ascending ranking of the items by reported EC50. Please write the labels in the order that was asked for.
Response line: B, A, C, D

---

Target: RORgT (Homo sapiens)
Construct: Gal4 (fusion partner); expressed in transfected cells; host or cells: engineered Jurkat cells (Jurkat pEx/Gal/hRORγ CLBD/HYG pG5luc/blast)
Assay: RORgT Gal4 Luciferase Reporter Gene Assay
Assay type: cell-based
Conditions: engineered Jurkat cells overexpressing RORgT (LBD or full length) with Gal4 Luc reporter; 18 hours at 37° C.; 40 μM to 0.67 nM; read-out: RORg_GAL4 EC50
measurement-type: EC50 (nM)

Solved cases below.
{"smiles-repr": "NS(=O)(=O)c1ccc(CNC(=O)c2ccc(Cl)c(Oc3cc(F)cc(CCC(F)(F)F)c3)c2Cl)cc1", "measurement-type": "EC50", "readout-value": 10}
{"smiles-repr": "COc1ccc(Oc2c(Cl)cc(NC(=O)Cc3ccc(S(C)(=O)=O)nc3)cc2Cl)cc1C(C)C", "measurement-type": "EC50", "readout-value": 54}
{"smiles-repr": "COc1ccc(Oc2c(Cl)cc(NC(=O)CN3CCN(S(=O)(=O)C4CC4)CC3)cc2Cl)cc1C(C)C", "measurement-type": "EC50", "readout-value": 88}
{"smiles-repr": "CS(=O)(=O)N1CCN(CC(=O)Nc2cc(Cl)c(Oc3ccc(F)c(C4CC4)c3)c(Cl)c2)CC1", "measurement-type": "EC50", "readout-value": 78}
{"smiles-repr": "CC(C)c1cc(F)cc(Oc2c(Cl)cc(NC(=O)CN3CCC(S(C)(=O)=O)CC3)cc2Cl)c1", "measurement-type": "EC50", "readout-value": 116}

I. COc1ccc(Oc2c(Cl)cc(NC(=O)Cc3cn[nH]c3)cc2Cl)cc1C(C)C
II. COC(=O)c1cccc(C(=O)Nc2cc(Cl)c(Oc3ccc(OC)c(C(C)C)c3)c(Cl)c2)c1
Prompt line: Dear colleague, could you let me know whether I or II has the lower recorded EC50? Thanks. API: response body contains the label of the selected item.
Response line: I

---

Target: RORgT (Homo sapiens, UniProt P51449)
Construct: Gal4 (fusion partner); expressed in transfected cells; host or cells: engineered Jurkat cells (Jurkat pEx/Gal/hRORγ CLBD/HYG pG5luc/blast)
Sequence (P51449 267-516): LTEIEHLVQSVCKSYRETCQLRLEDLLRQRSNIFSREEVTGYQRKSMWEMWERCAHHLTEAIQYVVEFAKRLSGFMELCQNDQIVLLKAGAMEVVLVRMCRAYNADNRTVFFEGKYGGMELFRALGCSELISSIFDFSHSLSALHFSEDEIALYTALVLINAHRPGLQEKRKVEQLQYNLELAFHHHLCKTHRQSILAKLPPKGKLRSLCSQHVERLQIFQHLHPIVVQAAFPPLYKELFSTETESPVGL
Experiment: RORgT Gal4 Luciferase Reporter Gene Assay
Type: cell-based
Conditions: engineered Jurkat cells overexpressing RORgT (LBD or full length) with Gal4 Luc reporter; 18 hours at 37° C.; 40 μM to 0.67 nM; read-out: RORg_GAL4 EC50
pEC50: −log10 of the molar value.
measurement-type: pEC50

{"smiles-repr": "COc1ccc(Oc2c(Cl)ccc(C(=O)Nc3cccnc3)c2Cl)cc1C(C)C", "study-system": "RORgT (Homo sapiens, UniProt P51449)", "measurement-type": "pEC50", "readout-value": 5.35}
{"smiles-repr": "COc1ncc(Oc2c(Cl)ccc(C(=O)NCc3ccc(S(C)(=O)=O)cc3)c2Cl)cc1C(C)C", "study-system": "RORgT (Homo sapiens, UniProt P51449)", "measurement-type": "pEC50", "readout-value": 8.27}
{"smiles-repr": "COc1ccc(Oc2c(Cl)cc(NC(=O)CCC(N)=O)cc2Cl)cc1C(C)C", "study-system": "RORgT (Homo sapiens, UniProt P51449)", "measurement-type": "pEC50", "readout-value": 6.43}
{"smiles-repr": "COc1ccc(Oc2c(Cl)cc(NC(=O)Cc3ccc[n+]([O-])c3)cc2Cl)cc1C(C)C", "study-system": "RORgT (Homo sapiens, UniProt P51449)", "measurement-type": "pEC50", "readout-value": 6.63}
{"smiles-repr": "COc1ccc(Oc2c(Cl)cc(NC(=O)C3(c4cnccn4)CC3)cc2Cl)cc1C(C)C", "study-system": "RORgT (Homo sapiens, UniProt P51449)", "measurement-type": "pEC50", "readout-value": 6.09}

1. COc1ccc(Oc2c(Cl)ccc(C(=O)NCCN3CCCC3=O)c2Cl)cc1C(C)C
2. CC1(c2cc(F)cc(Oc3c(Cl)cc(NC(=O)Cc4ccc(S(C)(=O)=O)cc4)cc3Cl)c2)CC1
Prompt line: Identify the entry with the smaller pEC50: 1 or 2 . Write down the label attached to your selection.
Response line: 1
(1: 5.93, 2: 8.41)
